# Test system: redroot pigweed (Amaranthus retroflexus)
# assay.procedure: Postemergence herbicidal activity
# Assay type: in vivo
# settings: Amaranthus retroflexus, post-emergence, 336 h, post-emergent, 140 g ai/ha, after 14 days; read-out: % Control AMARE
quantity.kind: pest or weed control at 140 g/ha (%)
Give bare numbers, in %.

• CCCCOC(=O)c1nc(-c2ccc(Br)c(OC)c2F)cc(N)c1Cl = 85
• CCC(F)c1c(Cl)ccc(-c2cc(NC(C)=O)c(Cl)c(C(=O)OC)n2)c1F (stereo not shown) = 80
• COC(=O)c1nc(-c2ccc(Cl)c(C(C)F)c2F)cc(N)c1Cl (stereo not shown) = 100
• COC(=O)c1nc(-c2ccc3c(c2F)OCO3)c(F)c(N)c1Cl = 100
• COC(=O)c1nc(-c2ccc(Cl)c(CF)c2F)cc(N)c1Cl = 35
• Nc1cc(-c2ccc(Cl)c(CF)c2F)nc(C(=O)O)c1Cl = 85
• COC(=O)c1nc(-c2c(F)cc(Cl)c(C)c2F)cc(N)c1Cl = 95
• CCC(F)c1c(Cl)ccc(-c2cc(N)c(Cl)c(C(=O)OC)n2)c1F (stereo not shown) = 95
• COC(=O)c1nc(-c2c(F)cc(Cl)c(OC)c2F)cc(NC(C)=O)c1Cl = 95
• CCCCOCCOC(=O)c1nc(-c2ccc(Cl)c(OC)c2F)cc(N)c1Cl = 100

Quick one: give me pest or weed control at 140 g/ha for each item below, same order please.
1. Nc1cc(-c2ccc(Cl)c(OC(F)F)c2F)nc(C(=O)O)c1Cl
2. Nc1cc(-c2ccc(Cl)c(C(F)F)c2Cl)nc(C(=O)O)c1Cl
3. CCc1c(Cl)ccc(-c2cc(N)c(Cl)c(C(=O)OC)n2)c1F
4. COC(=O)c1nc(-c2ccc(Cl)c(N(C)C)c2Cl)cc(N)c1Cl
5. COC(=O)c1nc(-c2ccc(Br)c(OC)c2Cl)cc(N)c1Cl
6. CCOc1c(F)ccc(-c2cc(N)c(Cl)c(C(=O)OC)n2)c1F
7. COC(=O)c1nc(-c2c(F)cc(C)c(OC)c2F)cc(N)c1Cl
8. COCCOc1c(Cl)ccc(-c2cc(N)c(Cl)c(C(=O)OC)n2)c1F

Result:
100
100
100
100
100
100
100
95

Problem: Which value of pest or weed control at 140 g/ha has been reported for CCCCOc1c(Cl)ccc(-c2cc(N)c(Cl)c(C(=O)OC)n2)c1F in the records?
Result: 90

Values compiled from patent US20070179060A1.
